target: hCD3 (human CD3) (Homo sapiens, UniProt P07766); test: Kinetics and affinity of hCD3/human IgG interactions by SPR (Bio-Rad Proteon XPR36); assay type: binding; settings: 37° C.
Sequence (P07766 23-126 limits assumed): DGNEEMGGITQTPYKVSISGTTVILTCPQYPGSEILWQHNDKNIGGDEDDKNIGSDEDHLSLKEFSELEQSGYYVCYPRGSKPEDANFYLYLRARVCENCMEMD
Sequence (P04234 22-105 partner limits assumed): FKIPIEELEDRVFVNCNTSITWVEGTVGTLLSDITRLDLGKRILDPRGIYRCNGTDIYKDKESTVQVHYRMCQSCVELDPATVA
Value kind: kd huCD3ed @37° C. (s⁻¹)
Return type: number; implicit unit s⁻¹.

Worked set:
# Molecule, Value unit, kd huCD3ed @37° C.
data = [
    ("h2B4-VH-wt VL_TK: anti-CD3 antibody (antibody, V domains shown) VH: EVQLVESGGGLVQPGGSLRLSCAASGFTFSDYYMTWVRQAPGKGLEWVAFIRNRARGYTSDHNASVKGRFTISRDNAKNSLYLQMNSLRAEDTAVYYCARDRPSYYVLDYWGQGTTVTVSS VL: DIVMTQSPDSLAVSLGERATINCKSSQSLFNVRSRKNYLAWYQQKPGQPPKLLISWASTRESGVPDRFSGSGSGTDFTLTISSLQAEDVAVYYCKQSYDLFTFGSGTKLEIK", "s⁻¹", 0.014),
    ("h2B4-VH-hnps VL_TK: anti-CD3 antibody (antibody, V domains shown) VH: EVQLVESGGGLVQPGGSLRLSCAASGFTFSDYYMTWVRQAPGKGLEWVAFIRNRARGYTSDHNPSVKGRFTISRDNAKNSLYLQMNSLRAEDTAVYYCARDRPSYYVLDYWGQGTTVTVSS VL: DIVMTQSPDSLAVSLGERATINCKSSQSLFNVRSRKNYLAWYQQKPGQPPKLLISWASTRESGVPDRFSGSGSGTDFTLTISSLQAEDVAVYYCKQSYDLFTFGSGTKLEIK", "s⁻¹", 0.016),
]

// below: kd huCD3ed @37° C. requested for another molecule
Lookup: State the recorded kd huCD3ed @37° C. for this entry: h2B4: anti-CD3 antibody (antibody, V domains shown) VH: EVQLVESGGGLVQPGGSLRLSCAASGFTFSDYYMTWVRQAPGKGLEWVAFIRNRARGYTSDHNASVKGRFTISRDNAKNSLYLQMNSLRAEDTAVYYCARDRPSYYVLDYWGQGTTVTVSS VL: DIVMTQSPDSLAVSLGERATINCTSSQSLFNVRSRKNYLAWYQQKPGQPPKLLISWASTRESGVPDRFSGSGSGTDFTLTISSLQAEDVAVYYCKQSYDLFTFGSGTKLEIK
Found: 0.01369
